Field: MIC E.coli. Provide a value for each of the molecules that follow.
# Test system: E.coli CAN-ICU 63074
# Format: cell-based, Escherichia coli
# experimental conditions: CAN-ICU 63074, 24 h
Where a SMILES comes first, the peptide text is derived from it. [ ]: non-standard residue; d: D form. The star is where a group is joined. Palmitoyl = CCCCCCCCCCCCCCCC(=O)*; Nlys = NCCCCNCC(=O)O

Q: Supply recorded MIC E.coli for CCCCCCCCCCCCCCCC(=O)N(CCCCN)CC(=O)NCC(=O)N(CCCCN)CC(N)=O [C16-NlysGNlys] (Palmitoyl-[Nlys]-Gly-[Nlys]-NH2) here.
Ans: 16 µg/mL

Q: Supply recorded MIC E.coli for CCCCCCCCCCCCCCCCCCCC(=O)N(CCCCN)CC(=O)N(CCCCN)CC(=O)N(CCCCN)CC(N)=O here.
Ans: 32 µg/mL

Q: Supply recorded MIC E.coli for CCCCCCCCCCC(=O)N(CCCCN)CC(=O)N(CCCCN)CC(=O)N(CCCCN)CC(N)=O here.
Ans: >512 µg/mL

Q: Supply recorded MIC E.coli for CCCCCCCCCCCCCC(=O)N(CCCCNC(=N)N)CC(=O)N(CCCCNC(=N)N)CC(=O)N(CCCCNC(=N)N)CC(N)=O here.
Ans: 64 µg/mL

Q: Supply recorded MIC E.coli for CCCCCCCCCCCCCC(=O)N(CCCCN)CC(=O)N(CCCCN)CC(=O)N(CCCCN)CC(N)=O here.
Ans: 128 µg/mL

Q: Supply recorded MIC E.coli for CCCCCCCCCCCCCCCCCCCC(=O)N(CCCCNC(=N)N)CC(=O)NCC(=O)N(CCCCNC(=N)N)CC(N)=O here.
Ans: 256 µg/mL

Q: Supply recorded MIC E.coli for CCCCCCCCCCCCCCCC(=O)N(CCCCN)CC(=O)N(CCCCN)CC(=O)N(CCCCN)CC(N)=O here.
Ans: 64 µg/mL

Data credit: paper PMC3402541
